Ref: patent US20240141038A1

Target: human NKp46 (full length, on cells) (human, UniProt O76036 22-304)
Sequence (O76036 22-304 Q82K): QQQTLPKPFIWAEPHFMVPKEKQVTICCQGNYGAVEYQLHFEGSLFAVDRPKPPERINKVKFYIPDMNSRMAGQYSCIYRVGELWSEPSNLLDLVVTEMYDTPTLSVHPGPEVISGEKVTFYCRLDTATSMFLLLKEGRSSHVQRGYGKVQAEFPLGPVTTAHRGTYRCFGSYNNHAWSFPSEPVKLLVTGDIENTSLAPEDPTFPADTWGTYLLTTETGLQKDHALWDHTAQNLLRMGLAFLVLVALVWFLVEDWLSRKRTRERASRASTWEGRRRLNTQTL
Assay: cell-based or functional assay
// values below are reported EC50 of NK cell activation (CD107a-positive NK cells, plate-coated antibody)
MEASURED QUANTITY: EC50 of NK cell activation (CD107a-positive NK cells, plate-coated antibody) (nM)

| BINDER | U | RELATION SYMBOL | MEAS VALUE |
| --- | --- | --- | --- |
| H4-PA45 humanized antibody (antibody, V domains shown, not shown: constant region of human IgG1) VH: EVQLVESGGGLVQPGGSLRLSCAASGRTFSRLPMAWFRQAPGKDREFVAAISWSGGSTYYADSMKGRFTISRDNSKNTAYLQMNSLRAEDTAVYYCAAVGDSAPYSATIVYTDARAYAYWGQGTLVTVSS | nM | = | 0.4 |
| H1-PC11 humanized antibody (antibody, human IgG1, V domains shown, not shown: constant region of human IgG1) VH: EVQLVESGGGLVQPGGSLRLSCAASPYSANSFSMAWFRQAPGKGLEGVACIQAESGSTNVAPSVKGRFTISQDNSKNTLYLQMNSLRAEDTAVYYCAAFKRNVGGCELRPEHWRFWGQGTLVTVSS | nM | = | 0.85 |
| H4-PA27 humanized antibody (antibody, human IgG1, V domains shown, not shown: constant region of human IgG1) VH: DVQLVESGGGVVQPGRSLRLSCAASGRTESWYRMGWFRQAPGKGREVVARISGDTNIKYYAGSVKGRFTISRDNSKNTLYLQMSSLRAEDTAVYYCAADRTGATWDYWGQGTLVTVSS | nM | = | 10.7 |
| H3-PA45 humanized antibody (antibody, V domains shown, not shown: constant region of human IgG1) VH: EVQLVESGGGLVQPGGSLRLSCAASGRTFSRLPMAWFRQAPGKGREFVAAISWSGGSTYYADSMKGRFTISRDNSKNTAYLQMNSLRAEDTAVYYCAAVGDSAPYSATIVYTDARAYAYWGQGTLVTVSS | nM | = | 0.58 |
| H2-PA31 humanized antibody (antibody, human IgG1, V domains shown, not shown: constant region of human IgG1) VH: EVQLVESGGGLVQPGGSLRLSCAVSGRTFSRLPMGWFRQAPGKGLEFVAAISWSSSTTYYADSVKGRFTISRDNSKNTAYLQMNSLRAEDTAVYYCAAVGGSLDYSATVVYTAARAYADWGQGTLVTVSS | nM | = | 0.63 |
| H1-PA27 humanized antibody (antibody, human IgG1, V domains shown, also called hPA27; not shown: constant region of human IgG1) VH: QVQLVESGGGVVQPGRSLRLSCAASGRTESWYRMGWVRQAPGKGLEWVARISGDTNIKYYAGSVKGRFTISRDNSKNTLYLQMSSLRAEDTAVYYCAADRTGATWDYWGQGTLVTVSS | nM | > | 20 |
| H2-PA45 humanized antibody (antibody, V domains shown, not shown: constant region of human IgG1) VH: EVQLVESGGGLVQPGGSLRLSCAASGRTFSRLPMAWFRQAPGKGLEFVAAISWSGGSTYYADSMKGRFTISRDNSKNTAYLQMNSLRAEDTAVYYCAAVGDSAPYSATIVYTDARAYAYWGQGTLVTVSS | nM | = | 0.75 |
| H3-PC11 humanized antibody (antibody, human IgG1, V domains shown, not shown: constant region of human IgG1) VH: EVQLVESGGGLVQPGGSLRLSCAASPYSANSFSMAWFRQAPGKGREGVACIQAESGSTNVAPSVKGRFTISQDNSKNTLYLQMNSLRAEDTAVYYCAAFKRNVGGCELRPEHWRFWGQGTLVTVSS | nM | = | 1.21 |
